Cited source: patent US20030203975A1

Experimental Target: UniProt:P11388
Sequence (P11388 whole entry): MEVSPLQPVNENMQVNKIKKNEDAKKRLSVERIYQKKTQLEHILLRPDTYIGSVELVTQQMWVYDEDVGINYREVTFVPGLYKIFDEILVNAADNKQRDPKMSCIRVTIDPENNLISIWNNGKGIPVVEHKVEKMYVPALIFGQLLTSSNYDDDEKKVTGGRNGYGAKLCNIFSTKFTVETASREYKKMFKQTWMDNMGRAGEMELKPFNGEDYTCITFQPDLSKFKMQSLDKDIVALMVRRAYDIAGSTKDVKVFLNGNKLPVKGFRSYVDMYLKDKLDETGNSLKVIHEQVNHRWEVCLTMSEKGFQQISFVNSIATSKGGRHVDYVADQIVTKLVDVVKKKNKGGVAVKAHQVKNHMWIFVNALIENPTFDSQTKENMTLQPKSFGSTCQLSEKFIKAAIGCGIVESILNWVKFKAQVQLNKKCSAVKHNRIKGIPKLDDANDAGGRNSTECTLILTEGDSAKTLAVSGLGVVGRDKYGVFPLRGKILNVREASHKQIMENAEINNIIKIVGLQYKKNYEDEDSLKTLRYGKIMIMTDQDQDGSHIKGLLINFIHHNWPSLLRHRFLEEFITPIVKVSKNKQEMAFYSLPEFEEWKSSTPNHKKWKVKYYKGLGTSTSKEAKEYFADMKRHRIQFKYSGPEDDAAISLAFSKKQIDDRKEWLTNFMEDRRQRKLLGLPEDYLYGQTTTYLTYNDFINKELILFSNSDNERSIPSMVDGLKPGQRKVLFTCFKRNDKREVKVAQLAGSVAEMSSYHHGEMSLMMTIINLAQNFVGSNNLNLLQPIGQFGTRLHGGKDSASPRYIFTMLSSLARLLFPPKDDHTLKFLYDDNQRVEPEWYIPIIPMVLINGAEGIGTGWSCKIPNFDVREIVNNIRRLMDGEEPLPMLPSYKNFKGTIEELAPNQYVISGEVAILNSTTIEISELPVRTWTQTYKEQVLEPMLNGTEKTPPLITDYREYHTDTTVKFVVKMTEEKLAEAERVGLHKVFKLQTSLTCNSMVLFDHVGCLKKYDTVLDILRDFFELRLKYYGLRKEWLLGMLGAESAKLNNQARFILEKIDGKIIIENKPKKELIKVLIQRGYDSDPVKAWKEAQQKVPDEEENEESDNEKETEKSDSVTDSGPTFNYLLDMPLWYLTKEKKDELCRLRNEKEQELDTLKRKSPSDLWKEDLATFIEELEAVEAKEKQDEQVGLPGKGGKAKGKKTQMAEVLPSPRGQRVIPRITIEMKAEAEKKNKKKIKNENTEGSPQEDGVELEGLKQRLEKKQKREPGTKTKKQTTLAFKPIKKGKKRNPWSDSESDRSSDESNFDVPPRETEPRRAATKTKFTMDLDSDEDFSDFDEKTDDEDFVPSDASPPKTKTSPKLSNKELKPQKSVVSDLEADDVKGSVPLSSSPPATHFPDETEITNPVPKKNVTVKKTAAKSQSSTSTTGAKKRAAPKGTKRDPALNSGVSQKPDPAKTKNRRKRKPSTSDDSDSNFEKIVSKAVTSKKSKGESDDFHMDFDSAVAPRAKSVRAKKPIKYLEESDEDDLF
Experiment Notes: Topo II relaxation assay
Type: biochemical
Set-up: key: ‘—’ = Not active
Particulars: unit not given; compound at 1, 10, 25 and 50 μM in protocol
Outcome Measure: TopIIα Relax.

>  <Molecule>
CC(C)[C@@H](N)C(=O)OCCCNc1cccc2c1C(=O)c1ccccc1C2=O.O=C(O)C(F)(F)F [Example 37]

>  <Recorded Result>
—

$$$$
>  <Molecule>
CC(C)[C@H](N)C(=O)OCCCNc1ccc(O)c2c1C(=O)c1c(O)cccc1C2=O.O=C(O)C(F)(F)F [Example 57]

>  <Recorded Result>
—

$$$$
>  <Molecule>
O=C(O)C(F)(F)F.O=C1c2ccccc2C(=O)c2c(NCCCCOC(=O)[C@H]3CCCN3)cccc21 [Example 49]

>  <Recorded Result>
25

$$$$
>  <Molecule>
C[C@H](N)C(=O)OCCCCNc1cccc2c1C(=O)c1ccccc1C2=O.O=C(O)C(F)(F)F [Example 43]

>  <Recorded Result>
—

$$$$
>  <Molecule>
CC(C)[C@H](N)C(=O)OCCCNc1cccc2c1C(=O)c1ccccc1C2=O.O=C(O)C(F)(F)F [Example 35]

>  <Recorded Result>
—

$$$$
>  <Molecule>
O=C(O)C(F)(F)F.O=C1c2ccccc2C(=O)c2c(NCCCCOC(=O)[C@@H]3CCCN3)cccc21 [Example 47]

>  <Recorded Result>
5

$$$$
>  <Molecule>
N[C@@H](Cc1c[nH]c2ccccc12)C(=O)OCCCNc1cccc2c1C(=O)c1ccccc1C2=O.O=C(O)C(F)(F)F [Example 41]

>  <Recorded Result>
—

$$$$
>  <Molecule>
C[C@@H](N)C(=O)OCCCCNc1cccc2c1C(=O)c1ccccc1C2=O.O=C(O)C(F)(F)F [Example 45]

>  <Recorded Result>
—

$$$$

###

Test system: MAC 15A adenocarcinoma of the colon
Experiment Notes: In vitro chemosensitivity against MAC 15A adenocarcinoma (MTT assay)
Type: cell-based
Particulars: Mus musculus, MAC15A, 96 hours continuous exposure
Counter-ions that a name gives are not always drawn.
Outcome Measure: IC50 (µM)

>  <Compound>
N[C@@H](Cc1c[nH]c2ccccc12)C(=O)OCCCCCONc1cccc2c1C(=O)c1ccccc1C2=O [Example 77]

>  <Outcome Measure>
IC50

>  <Units Symbol>
µM

>  <Recorded Result>
5.5

$$$$
>  <Compound>
N[C@@H](Cc1ccccc1)C(=O)OCCOCCNc1cccc2c1C(=O)c1ccccc1C2=O [Example 113, trifluoroacetate]

>  <Outcome Measure>
IC50

>  <Units Symbol>
µM

>  <Recorded Result>
7

$$$$
>  <Compound>
C[C@@H](N)C(=O)OCCCCCNc1cccc2c1C(=O)c1ccccc1C2=O [Example 95, trifluoroacetate]

>  <Outcome Measure>
IC50

>  <Units Symbol>
µM

>  <Recorded Result>
3.1

$$$$
>  <Compound>
N[C@H](Cc1ccccc1)C(=O)OCCOCCNc1cccc2c1C(=O)c1ccccc1C2=O [Example 115, trifluoroacetate]

>  <Outcome Measure>
IC50

>  <Units Symbol>
µM

>  <Recorded Result>
12

$$$$
>  <Compound>
C[C@@H](N)C(=O)OCCCNc1cccc2c1C(=O)c1ccccc1C2=O.O=C(O)C(F)(F)F [Example 63, trifluoroacetate]

>  <Outcome Measure>
IC50

>  <Units Symbol>
µM

>  <Recorded Result>
6.9

$$$$
>  <Compound>
O=C(O)C(F)(F)F.O=C1c2ccccc2C(=O)c2c(NCCCOC(=O)[C@H]3CCCN3)cccc21 [Example 69, trifluoroacetate]

>  <Outcome Measure>
IC50

>  <Units Symbol>
µM

>  <Recorded Result>
10.2

$$$$
>  <Compound>
CC(C)[C@H](N)C(=O)OCCCNc1ccc(O)c2c1C(=O)c1c(O)cccc1C2=O.O=C(O)C(F)(F)F [Example 57, trifluoroacetate]

>  <Outcome Measure>
IC50

>  <Units Symbol>
µM

>  <Recorded Result>
3.8

$$$$
